Below, each of the compounds is paired with its reported IC50 value.
test.method.notes: Antiproliferative activity against PDGF-induced rat aortic VSMC by colorimetric assay
Type: functional, tissue-based
test.conditions: Aorta
Just so you know, I need the unit written after the number.

smiles	IC50
O=C1C(Cl)=C(Sc2ccc(Br)cc2)C(=O)c2[nH]c(-c3ccccn3)nc21	12 µM

INPUT: Fill in the blank: the reported IC50 of O=C1C(Cl)=C(Sc2ccc(O)cc2)C(=O)c2[nH]c(-c3ccccc3)nc21 is ____.
OUTPUT: 2 µM

INPUT: Record: O=C1C(Cl)=C(Nc2ccccc2)C(=O)c2[nH]c(-c3ccccc3)nc21
OUTPUT: 4 µM

INPUT: What would you report for COc1ccc(NC2=C(Cl)C(=O)c3nc(-c4ccccn4)[nH]c3C2=O)cc1 ?
OUTPUT: 20 µM

INPUT: Let us now turn to O=C1C(Cl)=C(Nc2ccc(Cl)cc2)C(=O)c2[nH]c(-c3ccncc3)nc21
OUTPUT: 25 µM

INPUT: Again, but for O=C1C(Cl)=C(Nc2ccc(Cl)cc2)C(=O)c2[nH]c(-c3cccnc3)nc21
OUTPUT: 20 µM

INPUT: Try O=C1C(Cl)=C(Sc2ccc(Cl)cc2)C(=O)c2[nH]c(-c3ccccn3)nc21 next.
OUTPUT: 4 µM

INPUT: Lookup O=C1C(Cl)=C(Nc2ccc(Br)cc2)C(=O)c2[nH]c(-c3ccccn3)nc21
OUTPUT: 6.5 µM

INPUT: Moving on to Cc1ccc(SC2=C(Cl)C(=O)c3nc(-c4ccccn4)[nH]c3C2=O)cc1
OUTPUT: 2.5 µM

INPUT: Another: COc1ccc(NC2=C(Cl)C(=O)c3nc(-c4cccnc4)[nH]c3C2=O)cc1
OUTPUT: 42 µM

INPUT: Then what about the compound O=C1C(Cl)=C(Nc2ccc(Br)cc2)C(=O)c2[nH]c(-c3ccncc3)nc21 ?
OUTPUT: 100 µM

INPUT: Also need O=C1C(Cl)=C(Nc2ccc(OC(F)(F)F)cc2)C(=O)c2[nH]c(-c3ccccc3)nc21 , thanks.
OUTPUT: 1.5 µM

INPUT: Now consider Cc1ccc(NC2=C(Cl)C(=O)c3nc(-c4ccccc4)[nH]c3C2=O)cc1C .
OUTPUT: 3 µM

INPUT: And then COc1ccc(SC2=C(Cl)C(=O)c3nc(-c4ccccn4)[nH]c3C2=O)cc1 , what is it?
OUTPUT: 4.2 µM

INPUT: Next record, please: O=C1C(Cl)=C(Nc2ccc(F)cc2)C(=O)c2[nH]c(-c3cccnc3)nc21
OUTPUT: 21 µM

INPUT: What would you report for Cc1cccc(SC2=C(Cl)C(=O)c3nc(-c4ccccc4)[nH]c3C2=O)c1 ?
OUTPUT: 2 µM

INPUT: Here is the next compound: Cc1ccc(SC2=C(Cl)C(=O)c3nc(-c4ccccc4)[nH]c3C2=O)cc1
OUTPUT: 1 µM

INPUT: Repeat for the following compound: O=C1C(Cl)=C(Nc2ccc(C(F)(F)F)cc2)C(=O)c2[nH]c(-c3ccccc3)nc21
OUTPUT: 9.4 µM

INPUT: Would you mind doing COc1c(C)c2c(c(O)c1C/C=C(\C)CCC(=O)O)C(=O)OC2 as well?
OUTPUT: 1 µM

INPUT: What do you have for O=C1C(Cl)=C(Sc2ccccc2)C(=O)c2[nH]c(-c3ccccc3)nc21 ?
OUTPUT: 1.5 µM

INPUT: How about O=C1C(Cl)=C(Nc2ccc(Cl)cc2)C(=O)c2[nH]c(-c3ccccc3)nc21 ?
OUTPUT: 5.3 µM

INPUT: Same question, COc1ccc(NC2=C(Cl)C(=O)c3nc(-c4ccncc4)[nH]c3C2=O)cc1 this time
OUTPUT: 50 µM

Reference source for all entries: ChEMBL document CHEMBL1145607
